Hello, the source for this data is ChEMBL document CHEMBL1126281, in case you need it.

What Ki was measured for each of the following?
EXPERIMENTAL TARGET: D(2) dopamine receptor (Rattus norvegicus, UniProt P61169)
Sequence (P61169 whole entry): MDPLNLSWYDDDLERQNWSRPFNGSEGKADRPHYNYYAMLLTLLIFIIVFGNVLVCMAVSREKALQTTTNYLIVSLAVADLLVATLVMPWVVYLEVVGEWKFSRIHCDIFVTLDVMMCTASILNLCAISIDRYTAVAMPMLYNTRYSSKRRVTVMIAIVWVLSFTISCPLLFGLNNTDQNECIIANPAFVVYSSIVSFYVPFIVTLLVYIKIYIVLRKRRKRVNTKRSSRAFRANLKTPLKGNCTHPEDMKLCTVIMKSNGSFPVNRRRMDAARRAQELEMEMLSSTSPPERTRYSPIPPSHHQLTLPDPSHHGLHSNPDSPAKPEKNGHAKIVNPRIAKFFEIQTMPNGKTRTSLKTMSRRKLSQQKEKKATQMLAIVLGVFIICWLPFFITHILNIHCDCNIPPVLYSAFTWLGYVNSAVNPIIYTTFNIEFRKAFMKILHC
PROTOCOL DETAILS: Evaluated for its ability to displace tritiated receptor ligand in rat striatal membranes [3H]ADTN, a dopamine agonist
Format: functional, cell membranes, Striatum, Membrane
All answers are understood in nM, so give the number only.

query: Quick check: Ki of Cc1[nH]c2ccccc2c1CCCCN1CC=C(c2ccccc2)CC1 ?
result: 5.4

query: // Ki lookup, key: C1=C(c2ccccc2)CCN(CCCCCc2c[nH]c3ccccc23)C1
result: 13

query: Fill in: Ki of Clc1ccc2[nH]cc(CCCCN3CC=C(c4ccccc4)CC3)c2c1 is ___
result: 3.1

query: Data request, read-out Ki, for COc1ccc2c(CCCCN3CC=C(c4ccccc4)CC3)c[nH]c2c1
result: 1.8

query: For the compound shown here, Fc1ccccc1C1=CCN(CCCCc2c[nH]c3ccccc23)CC1 , give the reported Ki.
result: 4

query: Which measured Ki value corresponds to Oc1ccc2c(CCCCN3CC=C(c4ccccc4)CC3)c[nH]c2c1 ?
result: 2.5

query: I would be grateful if you could share the reported Ki for Clc1ccccc1C1=CCN(CCCCc2c[nH]c3ccccc23)CC1 .
result: 21

query: Returns the measured Ki for the input compound. Input: Clc1ccc(C2=CCN(CCCCc3c[nH]c4ccccc34)CC2)cc1
result: 46

query: Bench note: what Ki did COc1ccc(C2=CCN(CCCCc3c[nH]c4ccccc34)CC2)cc1 show?
result: 41

query: Record request: Ki value, item C1=C(c2ccccc2)CCN(CCc2c[nH]c3ccccc23)C1
result: 81

query: Endpoint output: Ki of COc1ccc2[nH]cc(CCCCN3CC=C(c4ccccc4)CC3)c2c1 . Value?
result: 4.4

query: Value lookup for Ki; key = Cn1cc(CCCCN2CC=C(c3ccccc3)CC2)c2ccccc21
result: 15

query: I have this compound here, Oc1ccc2[nH]cc(CCCCN3CC=C(c4ccccc4)CC3)c2c1 , and I need its recorded Ki.
result: 0.88

query: Any idea what Ki was measured for C1=C(c2ccccc2)CCN(CCCc2c[nH]c3ccccc23)C1 ?
result: 12

query: GET /values?readout=Ki&item= Fc1ccc2[nH]cc(CCCCN3CC=C(c4ccccc4)CC3)c2c1
result: 1.6

query: Name the recorded Ki for Fc1ccc(C2=CCN(CCCCc3c[nH]c4ccccc34)CC2)cc1 .
result: 15

query: // query Ki value for entry C1=C(c2ccccc2)CCN(CCCCCCc2c[nH]c3ccccc23)C1
result: 4.3

###

EXPERIMENTAL TARGET: D(2) dopamine receptor (Rattus norvegicus, UniProt P61169)
PROTOCOL DETAILS: Compound was evaluated for its ability to displace tritiated receptor ligand in rat striatal membranes 3[H]spiperone, a dopamine antagonist
Assay type: functional, cell membranes, Striatum, Membrane
ENDPOINT NAME: pIC50
A value of pIC50 is the negative decimal logarithm of a concentration given in moles per litre.

query: Hi! What's the reported pIC50 for Oc1ccc2[nH]cc(CCCCN3CC=C(c4ccccc4)CC3)c2c1 [ROXINDOLE] on D(2) dopamine receptor (Rattus norvegicus, UniProt P61169)?
result: 8.23

###

EXPERIMENTAL TARGET: D(2) dopamine receptor (Rattus norvegicus, UniProt P61169)
PROTOCOL DETAILS: Evaluated for its ability to displace tritiated receptor ligand in rat striatal membranes 3[H]spiperone, a dopamine antagonist
Assay type: functional, cell membranes, Striatum, Membrane
Field: pIC50. Provide a value for each of the molecules that follow.
// pIC50 here means minus log10 of the molar concentration (mol/L)

query: Report pIC50 for Fc1ccc(C2=CCN(CCCCc3c[nH]c4ccccc34)CC2)cc1 please.
result: 7.05

query: Entry COc1ccc2c(CCCCN3CC=C(c4ccccc4)CC3)c[nH]c2c1 : reported pIC50 = ?
result: 8.05

query: Entry Oc1ccc2c(CCCCN3CC=C(c4ccccc4)CC3)c[nH]c2c1 : reported pIC50 = ?
result: 8.10

query: Data request, read-out pIC50, for C1=C(c2ccccc2)CCN(CCCCCCc2c[nH]c3ccccc23)C1
result: 7.40

query: What pIC50 value was documented for this molecule, Fc1ccc2[nH]cc(CCCCN3CC=C(c4ccccc4)CC3)c2c1 ?
result: 8.00

query: Given the molecule Clc1ccc2[nH]cc(CCCCN3CC=C(c4ccccc4)CC3)c2c1 , what is its reported pIC50?
result: 7.30

query: I'd like to know its pIC50. The molecule in question is Clc1ccccc1C1=CCN(CCCCc2c[nH]c3ccccc23)CC1
result: 7.00

query: Looking for the measured pIC50 of C1=C(c2ccccc2)CCN(CCCc2c[nH]c3ccccc23)C1 , can you help?
result: 7.30

query: Fill in: pIC50 of Fc1ccccc1C1=CCN(CCCCc2c[nH]c3ccccc23)CC1 is ___
result: 7.70
